# assay_protocol: Oral plasma bioavailability
# Type: in vivo
# run_conditions: rat, 6 mg/kg, Study 2, samples taken for 24 hours after administration, oral 6 mg/kg vs i.v. 2 mg/kg, conscious rats
measured_attribute: bioavailability
Form field: result (number plus unit)

According to the records, this compound CCCN1CC[C@H]2c3c(cccc3C(N)=O)CC[C@H]21 (racemic) displays bioavailability of 70%

###

# Tested on: dorsal raphe 5-HT cell firing
# assay_protocol: 5-HT cell firing in chloral hydrate anesthetized rats
# Assay type: in vivo
# run_conditions: Rattus norvegicus, iv, read-out: Depression of 5-HT cell firing, ED50
measured_attribute: ED50 (µg/kg)
Reply with just the number (in µg/kg).

According to the records, this compound CCCN1CC[C@H]2c3c(cccc3C(N)=O)CC[C@H]21 (single isomer, unassigned) [Compound 2] displays ED50 of 6

According to the records, this compound CCCN1CC[C@H]2c3c(cccc3C(N)=O)CC[C@H]21 (racemic) [Compound 1] displays ED50 of 2
